- studySystem: MK2 (Homo sapiens)
- Sequence (P49137 whole entry): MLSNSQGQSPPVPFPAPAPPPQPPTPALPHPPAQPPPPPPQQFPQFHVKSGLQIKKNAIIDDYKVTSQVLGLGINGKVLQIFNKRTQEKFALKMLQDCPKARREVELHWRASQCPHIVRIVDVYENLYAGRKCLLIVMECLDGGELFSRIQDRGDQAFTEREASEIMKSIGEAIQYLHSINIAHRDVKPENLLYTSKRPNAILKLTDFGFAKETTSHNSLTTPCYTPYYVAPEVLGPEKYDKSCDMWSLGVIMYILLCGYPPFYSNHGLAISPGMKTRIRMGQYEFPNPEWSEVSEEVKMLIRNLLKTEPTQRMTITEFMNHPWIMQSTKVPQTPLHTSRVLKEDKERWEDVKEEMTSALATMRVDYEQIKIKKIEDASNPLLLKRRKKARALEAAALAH
- protocolText: MK2 degradation in human SW1353 cells (MSD, 24 h)
- Assay type: cell-based
- Parameters: endogenous in cells; host or cells: SW-1353 (ATCC HTB-94)
- measurementContext: read-out: MK2 MSD SW1353 degradation 24 h GMean External Abs DC50
Listed compounds paired with reported DC50

compound="C[C@@H]1CNc2c(sc3ccc4nc(-c5ccc(N6CCN(C7CC(c8cccc9c8n(C)c(=O)n9C8CCC(=O)NC8=O)C7)CC6)cc5)ccc4c23)C(=O)N1 (some centres unmarked) [Compound I-246]" reportedresult="< 1 nM"
compound="Cc1cc(N2CCN(CC3CCN(c4ccc5c(c4)n(C)c(=O)n5C4CCC(=O)NC4=O)CC3)CC2)ccc1-c1cc(-c2cc3c([nH]2)C2(CC2)CNC3=O)ccn1 (centres unmarked) [Compound I-217]" reportedresult="> 100 nM"
compound="C[C@@H]1CNc2c(sc3ccc4nc(-c5ccc(N6CCN(C7CN(c8cccc9c8n(C)c(=O)n9C8CCC(=O)NC8=O)C7)CC6)cc5)ccc4c23)C(=O)N1 (some centres unmarked) [Compound I-262]" reportedresult="< 1 nM"
compound="C[C@@H]1CNc2c(sc3ccc4nc(-c5cccc(N6CCC(CN7CCN(CCc8cccc9c8n(C)c(=O)n9C8CCC(=O)NC8=O)CC7)CC6)c5)ccc4c23)C(=O)N1 (some centres unmarked) [Compound I-107]" reportedresult="1 to 10 nM"

// switching to the query compound
Query block: Consider the compound shown here: Cn1c(=O)n(C2CCC(=O)NC2=O)c2ccc(N3CCC(CN4CCN(c5ccc(-c6cc(-c7cc8c([nH]7)C7(CC7)CNC8=O)ccn6)c(F)c5)CC4)CC3)cc21 (centres unmarked) [Compound I-218] What is its recorded DC50?
Result block: < 1 nM
